# PROTOCOL_DESCRIPTION: protein stability index of a GFP-peptide fusion (GPS, HEK-293T) (PSI 1-6); higher = more stable;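 note: 24-mer peptide tiles fused after GFP, lentivirally expressed, FACS-sorted into six equal bins by GFP/DsRed ratio, decoded by Illumina sequencing, PSI is the read-weighted mean bin number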
# MEASUREMENT_CONDITIONS: treatment: MLN4924 1 uM, 8 h; c terminus: a fixed tail appended
ASSAY_ENDPOINT: protein stability index
// keep it numeric: no unit symbol after the value

Solved cases below.
YVEIRTFEPRLLVQSIELQRPRFI [VPS39] :: 2.65
FVIKMPVMYRIGCLRDDVVFFIYL [CLPTM1] :: 3.06
GLSESSGPHTISNQNNYRLLSCGK [ACSBG2] :: 4
ASLKGYQWLKDKILSEEGRRQQAK [KCNAB2] :: 3.67
GPSLVPGKTPTVRAALICLTLVLV [CD207] :: 2.73

What measured protein stability index goes with NLIYRDVKPENFLIGRPGNKTQQV [CSNK1G3] ?
3.25

Requested read-out: protein stability index. Entry: RDAGATPSAAGAPASAPGEPRQRR [ANKRD9]
5.59

Name the reported protein stability index value associated with the sequence GIQQLLQAEKRAAEKVSEARKRKN [ATP6V1G1]
3.84

State the recorded protein stability index for this entry: LGVRRPGGAGKEGVRVNNRFELIN [TCF25]
3.12

Please report the recorded protein stability index for SLSDLEIQASAGVISKKAKVKVPQ [ZNF75A] .
4.55

Given the sequence LGLETLKITDFQLHASTVKRYGLG [CPXM2] , what is its reported protein stability index?
2.46

I'd like to know its protein stability index. The sequence in question is TKVGSFMIRESETKKGFYSLSVRH [SLA]
2.66

Please give the measured protein stability index for this sequence: EVSNPSKPGRKTNQLQYMQNVVVK [BRD3]
3.79

---

# PROTOCOL_DESCRIPTION: protein stability index of a GFP-peptide fusion (GPS, HEK-293T) (PSI 1-6); higher = more stable
# MEASUREMENT_CONDITIONS: treatment: MLN4924 1 uM, 8 h; c terminus: a fixed tail appended
Readings of protein stability index for the listed sequences

Previously resolved entries follow.
HVQDPQNTVKVQVLYPDGQAQMIH [INTS4] :: 3.52
LVDKETDKRHVEQKIQFKRETASL [PDZK1] :: 4.52
DQKVIELVKKYGTKQWTLIAKHLK [MYBL2] :: 3.12
RASALLASCSKNCTNSPAIVRFSG [FBXO34] :: 2.59

I am curious: what protein stability index value has been reported for LQANDVFHKQQWFNCIRAAIAPFQ [NET1] ?
2.24

Using the record for KATASEAVDCKWYIRAPPRSKIYL [NETO1] , report its protein stability index.
2.25

Find the recorded protein stability index belonging to AGTKVFEVPEMSPVTCCDVSSNNR [TLE6] and report it.
4.17

Any idea what its protein stability index is? The sequence is FPETTFISVTAYQNPQITQLKIAA [TBX6]
2.73

Name the recorded protein stability index for KDVAIDMMDSRTSQQLQLIDEQDS [STX5] .
5.33

---

# PROTOCOL_DESCRIPTION: protein stability index of a GFP-peptide fusion (GPS, HEK-293T) (PSI 1-6); higher = more stable
# MEASUREMENT_CONDITIONS: treatment: MLN4924 1 uM, 8 h; c terminus: native
ASSAY_ENDPOINT: protein stability index
Give the figure only, with no unit attached.

If you can, please state the reported protein stability index value of AAKKVAPLMAKAIRDYKGRFSRR [ELOA2] .
3.02

I'd like to know its protein stability index. The sequence in question is AQDLMDGLPPGDSNQLAWFDTDL [CTNNB1]
5.09

# lookup: protein stability index of YIPSYTSWYPSAHQEAMQQPQLM [DLX1]
2.44

Value lookup for protein stability index; key = FPEALDELPLPPFLQPLDLTGKG [ANKRD9]
3.52

Quick one: protein stability index of HITARIESDLTLESLSDEEIHPG [DRICH1] ?
4.38

So what does the record say about protein stability index for VLALFVYVAWNEGSRQWREGKQD [VMA21] ?
2.85

Item NELQHDLDVVSDALAKVSRKPSI [TPH1] has what recorded protein stability index?
5.33

Look at this sequence and give its reported protein stability index. HIDAIILALPEDLQGILLKTGMT [DENND6A]
2.59

State the recorded protein stability index for this entry: HYKKAPIFTSEHGEKLYLVRALQ [NCK2]
2.2

Record request: protein stability index value, item SSISPGLHSFTDHQRLMKRRKSV [KCNK9]
5.47

Which protein stability index is listed for PLVTMDDAMERTVQSFRHLRRVK [NSDHL] ?
3.23

For the sequence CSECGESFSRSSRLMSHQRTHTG [ZNF263] , what protein stability index is on record?
3.53

Data request, read-out protein stability index, for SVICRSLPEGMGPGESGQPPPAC [ALKBH7]
3.5

// lookup protein stability index for KTPVLLTDYPVDLDEIAYFTWAS [MYORG]
2.18

Data request, read-out protein stability index, for LFSLMVVNRLTEELGCDEIIDRE [EID1]
2.37

I would be grateful if you could share the reported protein stability index for RIHVRRHITHDERPHGQQIVFKD [KCTD13] .
4.33

Item SFGLRFGKREAAPGNHGRSAGRG [KISS1] has what recorded protein stability index?
2.64

---

# PROTOCOL_DESCRIPTION: protein stability index of a GFP-peptide fusion (GPS, HEK-293T) (PSI 1-6); higher = more stable
# MEASUREMENT_CONDITIONS: treatment: DMSO; c terminus: a fixed tail appended
ASSAY_ENDPOINT: protein stability index
Answer as a number with no unit attached.

VFRVSSDKLALCHLELTRKLQDLI [FCHO1] :: 2.28

What measured protein stability index goes with KLKNDTENHQPVSLSDLEIQASAG [ZNF75A] ?
5.21

Consider the sequence shown here: TFLVFSKAELGALPHDFIDSLEKT [NLN] What is its recorded protein stability index?
2.13

---

# PROTOCOL_DESCRIPTION: protein stability index of a GFP-peptide fusion (GPS, HEK-293T) (PSI 1-6); higher = more stable
# MEASUREMENT_CONDITIONS: treatment: DMSO; c terminus: a fixed tail appended
Below: a set of entries, each annotated with reported protein stability index.
Answer with the value's number alone.

Look over these answered cases.
FLQKVAQMPQEEVELLPPAPKGKG [BRD3] :: 4.24
LYFHHYFPAMLFSSMLTGILWDTL [POMT2] :: 2.84
SLNLSTEFISSTKRPYAKELETVD [SERPINB5] :: 3.69
RFGDRMFYKDWWNSTSYSNYYRTW [SOAT1] :: 1.92
IIKMATARQETKEMARKVIEHCSN [ZER1] :: 2.94
RGQARRLAPNFRWAIPNRQINDGM [BEX3] :: 3.1

Endpoint output: protein stability index of QDIENALSTSSSPSGTPTNLRRHV [DLC1] . Value?
4.96

# lookup: protein stability index of LAQEAEAWLNYPCFKNWDGSPVSS [OAS1]
3.04

Form field: reported protein stability index of AGGEENMTETDAFYKREMFDPAEK [CASP6]
5.13

What does the data say about its protein stability index? Entry: EPVAEIGVGAYGTVYKARDPHSGH [CDK4]
4.11

Tell me the measured protein stability index of LRDPLTSLSHTELEAAEVILEHAH [FCHSD1] , please.
4.29

# get_value(readout='protein stability index', item= LRHSNPRADPLVCATGLLGSAPFL [SPNS1] )
2.28

What protein stability index value was documented for this sequence, QEVFEPPHYELCTLRGTGATADFA [NETO1] ?
3.91

---

Items are presented alongside their recorded protein stability index.
# PROTOCOL_DESCRIPTION: protein stability index of a GFP-peptide fusion (GPS, HEK-293T) (PSI 1-6); higher = more stable
# MEASUREMENT_CONDITIONS: treatment: DMSO; c terminus: a fixed tail appended
# print the numeric value only

GCASFIYLRPQSNYSSSQDALISV [OR10K2] :: 2.65
GLLSKTAGFSPDCIMDDAINILQN [INTS4] :: 2.91

Could you tell me which protein stability index is on file for KIRKPRTIYCSLQLQALNRRFQQT [DLX1] ?
2.45

Returns the measured protein stability index for the input sequence. Input: TSSLRLNWEAPPGAFDSFLLRFGV [TNXB]
2.06

Which measured protein stability index value corresponds to FAYKDEYEKFKLYLTIILILISFT [TMEM120A] ?
2.83

---

Catalogue of protein stability index values
# PROTOCOL_DESCRIPTION: protein stability index of a GFP-peptide fusion (GPS, HEK-293T) (PSI 1-6); higher = more stable
# MEASUREMENT_CONDITIONS: treatment: MLN4924 1 uM, 8 h; c terminus: a fixed tail appended
Just the number, please.

Some solved cases for reference:
NGRGELVESLKRFCASTRLPPTPL [AUP1] :: 2.94
SLVIGALLASLTGGVLIDRYGRRT [SLC2A12] :: 3.03

Then this sequence:
Using the record for IDVSKREPPPVKQELPPYNGFGLV [EFHC1] , report its protein stability index.
3.03

Data provenance: the supplement of paper PMC10567573
